Hello, the source for this data is ChEMBL document CHEMBL5543092, in case you need it.

Recorded remaining at 6 h values for a group of compounds are listed next.
assay: Chemical stability of the compound in at pH 7.4 measured at 6 hrs by HPLC based non-enzymatic stability assay; format: physicochemical; settings: buffer, read-out: Stability
Experimental readout: remaining at 6 h (%)

# Compound, Readout value
rows = [
    ("Nc1ncc(-c2ccc(S(=O)(=O)NCCCCC(=O)NCC#Cc3cccc4c3CN(C3CCC(=O)NC3=O)C4=O)cc2)nc1-c1nnc(-c2ccccc2)o1 (stereo not drawn)", 104),
    ("CNCc1ccc(-c2nnc(-c3nc(-c4ccc(S(=O)(=O)NCCCCC(=O)NCCCC#Cc5cccc6c5CN(C5CCC(=O)NC5=O)C6=O)cc4)cnc3N)o2)cc1 (stereo not drawn)", 101),
    ("CNCc1ccc(-c2nnc(-c3nc(-c4ccc(S(=O)(=O)NCCCCCCC(=O)N5CCN(c6ccc7c(c6)C(=O)N(C6CCC(=O)NC6=O)C7=O)CC5)cc4)cnc3N)o2)cc1 (stereo not drawn)", 97),
    ("Nc1ncc(-c2ccc(S(=O)(=O)NCCCCCCCC(=O)N3CCN(c4ccc5c(c4)C(=O)N(C4CCC(=O)NC4=O)C5=O)CC3)cc2)nc1C(=O)Nc1ccccc1 (stereo not drawn)", 98),
    ("Nc1ncc(-c2ccc(S(=O)(=O)NCCOCCOCCOCCC(=O)N3CCN(c4ccc5c(c4)C(=O)N(C4CCC(=O)NC4=O)C5=O)CC3)cc2)nc1C(=O)Nc1ccccc1 (stereo not drawn)", 101),
    ("Nc1ncc(-c2ccc(S(=O)(=O)NCCCCCCCC(=O)NCCOc3ccc(C4CCC(=O)NC4=O)cc3)cc2)nc1C(=O)Nc1ccccc1 (stereo not drawn)", 100),
    ("Nc1ncc(-c2ccc(S(=O)(=O)NCCCCCC(=O)NCC#Cc3cccc4c3CN(C3CCC(=O)NC3=O)C4=O)cc2)nc1C(=O)Nc1ccccc1 (stereo not drawn)", 101),
    ("CN1C(=O)CCC(N2Cc3c(C#CCCCNC(=O)CCCCCNS(=O)(=O)c4ccc(-c5cnc(N)c(C(=O)Nc6ccccc6)n5)cc4)cccc3C2=O)C1=O (stereo not drawn)", 100),
    ("Cc1ncsc1-c1ccc(CNC(=O)[C@@H]2C[C@@H](O)CN2C(=O)[C@@H](NC(=O)CCCCCNS(=O)(=O)c2ccc(-c3cnc(N)c(C(=O)Nc4ccccc4)n3)cc2)C(C)(C)C)cc1", 99),
    ("CNCc1ccc(-c2nnc(-c3nc(-c4ccc(S(=O)(=O)NCCCCCC(=O)NCC#Cc5cccc6c5CN(C5CCC(=O)NC5=O)C6=O)cc4)cnc3N)o2)cc1 (stereo not drawn)", 101),
    ("Nc1ncc(-c2ccc(S(=O)(=O)NCCCCCCC(=O)N3CCN(c4ccc5c(c4)C(=O)N(C4CCC(=O)NC4=O)C5=O)CC3)cc2)nc1C(=O)Nc1ccccc1 (stereo not drawn)", 97),
    ("Nc1ncc(-c2ccc(S(=O)(=O)NCCOCCOCCC(=O)N3CCN(c4ccc5c(c4)C(=O)N(C4CCC(=O)NC4=O)C5=O)CC3)cc2)nc1C(=O)Nc1ccccc1 (stereo not drawn)", 100),
    ("CNCc1ccc(-c2nnc(-c3nc(-c4ccc(S(=O)(=O)NCCCCCC(=O)N[C@H](C(=O)N5C[C@H](O)C[C@H]5C(=O)NCc5ccc(-c6scnc6C)cc5)C(C)(C)C)cc4)cnc3N)o2)cc1", 101),
    ("Cc1ncsc1-c1ccc(CNC(=O)[C@@H]2C[C@@H](O)CN2C(=O)[C@@H](NC(=O)CCOCCOCCNS(=O)(=O)c2ccc(-c3cnc(N)c(C(=O)Nc4ccccc4)n3)cc2)C(C)(C)C)cc1", 100),
    ("Nc1ncc(-c2ccc(S(=O)(=O)NCCCCC(=O)NCCOc3ccc(C4CCC(=O)NC4=O)cc3)cc2)nc1C(=O)Nc1ccccc1 (stereo not drawn)", 101),
    ("Nc1ncc(-c2ccc(S(=O)(=O)NCCCCCC(=O)NCC#Cc3cccc4c3CN(C3CCC(=O)NC3=O)C4=O)cc2)nc1-c1nnc(-c2ccccc2)o1 (stereo not drawn)", 108),
    ("CNCc1ccc(-c2nnc(-c3nc(-c4ccc(S(=O)(=O)NCCCCCC(=O)NCCCC#Cc5cccc6c5CN(C5CCC(=O)NC5=O)C6=O)cc4)cnc3N)o2)cc1 (stereo not drawn)", 104),
    ("Nc1ncc(-c2ccc(S(=O)(=O)NCCCCC(=O)N3CCN(c4ccc5c(c4)C(=O)N(C4CCC(=O)NC4=O)C5=O)CC3)cc2)nc1C(=O)Nc1ccccc1 (stereo not drawn)", 97),
    ("CNCc1ccc(-c2nnc(-c3nc(-c4ccc(S(=O)(=O)NCCCCCCC(=O)NCC#Cc5cccc6c5CN(C5CCC(=O)NC5=O)C6=O)cc4)cnc3N)o2)cc1 (stereo not drawn)", 101),
    ("Nc1ncc(-c2ccc(S(=O)(=O)NCCCCCC(=O)N3CCN(c4ccc5c(c4)C(=O)N(C4CCC(=O)NC4=O)C5=O)CC3)cc2)nc1-c1nnc(-c2ccccc2)o1 (stereo not drawn)", 96),
    ("Nc1ncc(-c2ccc(S(=O)(=O)NCCCCCC(=O)N3CCN(c4cccc(C(=O)NC5CCC(=O)NC5=O)n4)CC3)cc2)nc1C(=O)Nc1ccccc1 (stereo not drawn)", 102),
    ("Cc1ncsc1-c1ccc(CNC(=O)[C@@H]2C[C@@H](O)CN2C(=O)[C@@H](NC(=O)CCCCCNS(=O)(=O)c2ccc(-c3cnc(N)c(-c4nnc(-c5ccccc5)o4)n3)cc2)C(C)(C)C)cc1", 100),
    ("Cc1ncsc1-c1ccc(CNC(=O)[C@@H]2C[C@@H](O)CN2C(=O)[C@@H](NC(=O)CCCCNS(=O)(=O)c2ccc(-c3cnc(N)c(-c4nnc(-c5ccccc5)o4)n3)cc2)C(C)(C)C)cc1", 100),
]
